- system tested: T1, sIL-6R (soluble IL-6 receptor; SBH Sciences) (human, UniProt P08887 20-365)
- T1 construct: also called human IL-6R
- T1 sequence: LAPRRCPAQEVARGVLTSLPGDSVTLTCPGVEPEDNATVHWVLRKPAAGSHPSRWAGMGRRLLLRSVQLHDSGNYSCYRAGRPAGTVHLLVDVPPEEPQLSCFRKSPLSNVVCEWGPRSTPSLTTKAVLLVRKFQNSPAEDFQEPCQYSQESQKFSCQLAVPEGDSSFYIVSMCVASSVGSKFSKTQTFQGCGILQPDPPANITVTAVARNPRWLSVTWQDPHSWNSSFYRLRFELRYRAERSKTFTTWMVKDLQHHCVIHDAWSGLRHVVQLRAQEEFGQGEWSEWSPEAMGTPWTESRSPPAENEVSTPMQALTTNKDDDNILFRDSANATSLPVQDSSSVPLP
- assay info: SPR (BIAcore 3000), antibody on chip, sIL-6R analyte, pH 6.0
- Description: All SPR measurements were performed on a BIAcore 3000 instrument (GE Biosciences, Piscataway, N.J.). BIAcore Software-BIAcore 3000 Control Software V3.2 was used for the operation and control of the BIAcore 3000 instrument. […] Data was analyzed by using the Kinetics Wizard and the manual fitting programs that are both included with the BiaEvaluation Software V4.1. […]
readout kind: koff (s⁻¹)
Give your result in s⁻¹ as a bare value.

Query 231# (antibody, human IgG1, kappa, V domains shown, also called Sample # 231) VH: QVQLQESGPGLVRPSQTLSLTCTVSGYSITSDHAWSWVRQPPGRGLEWIGYISYSGITTYNPSLKSRVTMLRDTSKNQFSLRLSSVTAADTAVYYCARTLARMTAIDFWGQGSLVTVSS VL: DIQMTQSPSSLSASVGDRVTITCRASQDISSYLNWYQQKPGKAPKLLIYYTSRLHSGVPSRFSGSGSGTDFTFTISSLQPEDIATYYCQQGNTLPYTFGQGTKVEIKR yields koff of 3.1e-05
